# System: Aβ-GFP SH-SY5Y cells
# Protocol text: High content analysis of Aβ-GFP fluorescence
# Assay type: cell-based, Human
# Protocol conditions: Homo sapiens, SH-SY5Y, read-out: EC50 in Aβ aggregation inhibition (GFP fluorescence)
Quantity: EC50 (µM)
Report only the number, with the unit µM understood.

[[record]]
molecule = "Cc1ccc(/C=C/C(=O)c2c(O)c3ccccc3oc2=O)cc1"
target_or_test_system = "Aβ-GFP SH-SY5Y cells"
quantity = "EC50"
recorded_number = 7


// next item, EC50 requested
Need EC50, item COc1cc(/C=C/C(=O)CC(=O)/C=C/c2ccc(O)c(OC)c2)ccc1O [Curcumin, reference compound] 6.1
